Some molecules, each annotated with its measured Activity.
test system: COLO 205; experiment: Induction of apoptosis in human COLO205 cells assessed as accumulation at G0 phase at 16 uM after 24 hrs by FACS analysis (reference value: 2.28%); assay type: functional

[
  {
    "Sample smiles": "FC(F)(F)C(F)(F)C(F)(F)C(F)(F)C(F)(F)C(F)(F)C(F)(F)C(F)(F)CCn1cc(COc2ccccc2-c2nc3ccccc3s2)nn1",
    "Activity": "34.45%"
  },
  {
    "Sample smiles": "FC(F)(F)c1cccc(-n2cc(COc3ccccc3-c3nc4ccccc4s3)nn2)c1",
    "Activity": "40.7%"
  },
  {
    "Sample smiles": "FC(F)(F)C(F)(F)C(F)(F)C(F)(F)C(F)(F)C(F)(F)CCn1cc(COc2ccccc2-c2nc3ccccc3s2)nn1",
    "Activity": "11.91%"
  },
  {
    "Sample smiles": "COc1ccc(-c2nc3cc(F)ccc3s2)cc1OC",
    "Activity": "27.17%"
  }
]
